Assign growth to each entry below.
- Tested on: OVCAR-8 ovarian
- assay details: NCI-60 one-dose screen, 48 h (100 = growth as untreated, 0 = no growth, -100 = all killed)
- cond: 10 µM unless noted
Compounds without any hit were thinned out: in the full panel of roughly 83,000, 20% have a hit.
// note: answer is a bare numeric in %

Qu. I have this molecule here, Cc1ccc(NC(=O)[C@]23CCC(C)(C)CC2C2=CCC4[C@@]5(C)C[C@@H](O)[C@H](O)[C@@](C)(CO)C5CC[C@@]4(C)[C@]2(C)CC3)cc1 (some centres undefined) , and I need its recorded growth.
Ans. 44.9

Qu. Given the molecule COCOc1ccc2c(=O)c(C)c(C(=O)N[C@@H](Cc3ccccc3)C(O)C(=O)NCCc3ccc(OC)cc3)oc2c1 (some centres undefined) , what is its reported growth?
Ans. 107

Qu. Recorded growth of CC1=C(C(=O)OCc2ccccc2)C(c2ccc(-n3cncn3)cc2)n2c(nc3ccccc32)N1 (centres undefined) , please.
Ans. 86.6

Qu. # lookup: growth of COc1ccc(C(=O)/C=C/c2ccccc2Br)cc1S(N)(=O)=O
Ans. -64.5

Qu. Item O=C(Cn1nc(-c2ccccc2)ccc1=O)N/N=C/c1ccc(N2CCOCC2)cc1 has what recorded growth?
Ans. 102

Qu. Consider the molecule COc1ccc(/C=C/c2nc3ccccc3n3c(-c4ccc(Cl)cc4)nnc23)cc1 and give its measured growth.
Ans. 92.7

Qu. Please look up its growth: NS(=O)(=O)c1ccc(CCNC(=O)CSc2ccc(-c3ccc(Br)cc3)nn2)cc1
Ans. 64.6

Qu. Endpoint output: growth of O=C(/C=C/c1ccc(-c2ccccc2)cc1)c1nc2ccccc2n1Cc1ccc(Br)cc1 . Value?
Ans. 43.9

Qu. Which growth value is on record for O=[N+]([O-])c1ccc(/C=C/c2nc3ccccc3n3c(=S)[nH]nc23)cc1 ?
Ans. 83
